Assign GI50 to each entry below.
Tested on: M19-MEL
Method: NCI tumour cell line growth inhibition, 48 h
The source made the active and inactive calls. Rule as the data show it: active = GI50 up to about 1.1 µM and inactive = higher.

O=C(O)c1ccc(/N=N/c2cc(S(=O)(=O)O)c3cccnc3c2O)cc1: > 100 µM (inactive)
O=C(O)CCC(NC(=O)c1ccc(Nc2nc3ccc(C(F)(F)F)cc3nc2-c2ccccc2)cc1)C(=O)O (stereo not given): > 100 µM (inactive)
O=C(O)CN(c1ccccc1)S(=O)(=O)c1ccc(Cl)cc1: > 100 µM (inactive)
CN(C)/N=N/c1[nH]cnc1C(N)=O [DACARBAZINE]: 64.4 µM (inactive)

Task item: Entry "O=C(c1ccco1)N(C(=S)N1CCN(c2ccccn2)CC1)c1ccccc1" has what GI50?
Reply: > 100 µM (inactive)
